target: D(2) dopamine receptor (Homo sapiens); test: Displacement of [3H]raclopride from full length human cloned D2L receptor expressed in HEK293 cells incubated for 1 hr by radioligand displacement assay; assay type: cell-based
Sequence (P14416 whole entry): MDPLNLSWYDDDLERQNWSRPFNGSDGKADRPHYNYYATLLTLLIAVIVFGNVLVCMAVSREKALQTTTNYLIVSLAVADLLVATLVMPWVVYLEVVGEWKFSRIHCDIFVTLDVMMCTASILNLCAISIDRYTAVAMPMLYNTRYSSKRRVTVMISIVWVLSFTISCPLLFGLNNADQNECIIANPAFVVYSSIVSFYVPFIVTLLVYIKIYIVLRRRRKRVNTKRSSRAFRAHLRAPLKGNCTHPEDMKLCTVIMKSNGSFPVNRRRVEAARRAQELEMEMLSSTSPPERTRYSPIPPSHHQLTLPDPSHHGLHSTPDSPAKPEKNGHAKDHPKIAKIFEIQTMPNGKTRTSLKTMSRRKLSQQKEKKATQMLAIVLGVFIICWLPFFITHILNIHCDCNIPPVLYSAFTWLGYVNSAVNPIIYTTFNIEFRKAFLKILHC
Consider the following compounds; for each one, report its pKi.
Give bare numbers, as −log10 of the molar value.

O=C1c2ccccc2S(=O)(=O)N1CCCCCCN1CCN(c2cccc(Cl)c2Cl)CC1 :: 6.88
O=C1c2ccccc2S(=O)(=O)N1CCCCCCN1CCN(c2ccc(Cl)c(Cl)c2)CC1 :: 6.98
O=C1c2ccccc2S(=O)(=O)N1CCCCCCN1CCN(c2cccc3cccnc23)CC1 :: 7.82
O=C1c2ccccc2S(=O)(=O)N1CCCCCCN1CCN(c2cccc3ccccc23)CC1 :: 8.10
COc1ccccc1N1CCN(CCCCCCN2C(=O)c3ccccc3S2(=O)=O)CC1 :: 7.21

Provide pKi for all items below, preserving their order.
1. O=C1c2ccccc2S(=O)(=O)N1CCCCCCN1CCN(c2nsc3ccccc23)CC1
2. O=C1c2ccccc2S(=O)(=O)N1CCCCCCN1CCN(c2ccccc2F)CC1

[8.05, 7.62]

---

target: UniProt P14416; test: Displacement of [3H]raclopride from full length human cloned D2L receptor expressed in HEK293 cells incubated for 1 hr by radioligand displacement assay; type: cell-based
Consider the following molecules; for each one, report its pKi.
Numbers only, as −log10 of the molar value.

O=C1c2ccccc2S(=O)(=O)N1CCCCCCN1CCN(c2ccc(Cl)cc2)CC1 :: 7.55
O=C1c2ccccc2S(=O)(=O)N1CCCCCCN1CCN(c2ccccc2Cl)CC1 :: 7.35
COc1cccc(N2CCN(CCCCCCN3C(=O)c4ccccc4S3(=O)=O)CC2)c1 :: 6.95
COc1ccc(N2CCN(CCCCCCN3C(=O)c4ccccc4S3(=O)=O)CC2)cc1 :: 6.02
O=C1c2ccccc2S(=O)(=O)N1CCCCCCN1CCN(c2ccccn2)CC1 :: 6.62
O=C1c2ccccc2S(=O)(=O)N1CCCCCCN1CCN(c2ncccn2)CC1 :: 7.29
O=C1c2ccccc2S(=O)(=O)N1CCCCCCN1CCN(c2cccc(C(F)(F)F)c2)CC1 :: 8.15
O=C1c2ccccc2S(=O)(=O)N1CCCCCCN1CCN(c2cccc(Cl)c2)CC1 :: 7.41

Provide pKi for all items below, preserving their order.
1. O=C1c2ccccc2S(=O)(=O)N1CCCCCCN1CCN(c2ccccc2)CC1
2. O=C1c2ccccc2S(=O)(=O)N1CCCCCCN1CCN(c2ccccc2C(F)(F)F)CC1

1: 7.32; 2: 7.57

---

biological target: 5-hydroxytryptamine receptor 7 (Homo sapiens)
Sequence (P34969 whole entry): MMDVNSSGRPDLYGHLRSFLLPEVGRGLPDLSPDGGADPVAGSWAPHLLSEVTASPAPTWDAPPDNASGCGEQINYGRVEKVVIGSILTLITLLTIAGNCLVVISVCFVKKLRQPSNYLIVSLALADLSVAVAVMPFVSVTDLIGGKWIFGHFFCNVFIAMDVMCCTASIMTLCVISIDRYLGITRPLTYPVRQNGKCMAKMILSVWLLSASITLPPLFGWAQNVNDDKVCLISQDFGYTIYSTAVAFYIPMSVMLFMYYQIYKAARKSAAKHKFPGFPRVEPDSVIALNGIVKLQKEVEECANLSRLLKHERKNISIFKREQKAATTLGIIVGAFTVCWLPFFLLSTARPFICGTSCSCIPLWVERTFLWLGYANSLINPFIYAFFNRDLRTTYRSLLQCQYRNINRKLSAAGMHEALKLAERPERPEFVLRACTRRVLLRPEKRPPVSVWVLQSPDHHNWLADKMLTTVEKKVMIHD
test readout: Ki (nM)
Give bare numbers, in nM.

O=C1c2ccccc2S(=O)(=O)N1CCCCCCN1CCN(c2ccccc2Cl)CC1 :: 120
COc1cccc(N2CCN(CCCCCCN3C(=O)c4ccccc4S3(=O)=O)CC2)c1 :: 305
O=C1c2ccccc2S(=O)(=O)N1CCCCCCN1CCN(c2cccc3cccnc23)CC1 :: 21

Now consider a different compound.
Record lookup: for 5-hydroxytryptamine receptor 7 (Homo sapiens), what Ki belongs to `O=C1c2ccccc2S(=O)(=O)N1CCCCCCN1CCN(c2ccccc2F)CC1` ?
322

---

biological target: 5-hydroxytryptamine receptor 2A (Homo sapiens); test: Displacement of [3H]ketanserin from full length human cloned 5HT2A receptor expressed in CHO-K1 cells incubated for 1 hr by radioligand displacement assay; format: cell-based
Label Condition met when Ki is strictly below 300 nM; otherwise label Condition not met.

As a guide, the following entries are already answered.
O=C1c2ccccc2S(=O)(=O)N1CCCCCCN1CCN(c2nsc3ccccc23)CC1 :: Condition met
O=C1c2ccccc2S(=O)(=O)N1CCCCCCN1CCN(c2ccccc2C(F)(F)F)CC1 :: Condition not met
O=C1c2ccccc2S(=O)(=O)N1CCCCCCN1CCN(c2ncccn2)CC1 :: Condition met
O=C1c2ccccc2S(=O)(=O)N1CCCCCCN1CCN(c2cccc(Cl)c2)CC1 :: Condition not met
O=C1c2ccccc2S(=O)(=O)N1CCCCCCN1CCN(c2cccc3cccnc23)CC1 :: Condition met

Next compound, please.
Is Ki strictly under 300 nM for the entry `O=C1c2ccccc2S(=O)(=O)N1CCCCCCN1CCN(c2ccccc2Cl)CC1` ?
Condition met

---

Biological target: UniProt:P08908
Sequence (P08908 whole entry): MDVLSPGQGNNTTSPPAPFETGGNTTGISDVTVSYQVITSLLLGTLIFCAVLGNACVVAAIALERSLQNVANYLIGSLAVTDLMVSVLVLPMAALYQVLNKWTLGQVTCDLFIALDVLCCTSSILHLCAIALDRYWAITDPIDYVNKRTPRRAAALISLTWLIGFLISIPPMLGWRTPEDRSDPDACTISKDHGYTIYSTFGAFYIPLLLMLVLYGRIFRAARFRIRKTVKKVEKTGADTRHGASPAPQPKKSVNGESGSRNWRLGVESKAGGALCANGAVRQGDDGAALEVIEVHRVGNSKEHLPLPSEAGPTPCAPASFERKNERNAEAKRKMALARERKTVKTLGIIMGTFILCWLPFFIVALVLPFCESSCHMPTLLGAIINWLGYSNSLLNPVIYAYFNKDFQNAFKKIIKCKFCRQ
Assay: Agonist activity at human 5 HT1A receptor expressed in HEK293 cells assessed as inhibition of forskolin-stimulated cAMP accumulation incubated for 30 mins by TR-FRET assay
test readout: EC50 (nM)
One number for each entry, in nM.

May I ask what EC50 has been recorded for `O=C1c2ccccc2S(=O)(=O)N1CCCCCCN1CCN(c2cccc(C(F)(F)F)c2)CC1` ?
56
